Test system: L1210 leukemia ip in BDF1 mice, survival T/C
Assay: NCI In Vivo Anticancer Drug Screen. Data for tumor model L1210 Leukemia (intraperitoneal) in B6D2F1 (BDF1) mice
Details: endpoint: mean survival time; dose: 200.0 mg/kg/injection; schedule: Q04DX002 (ip); vehicle: Klucel (hydroxypropylcellulose) (HPC); higher = longer survival
Toxic doses and inconclusive results are not listed.

{"columns": ["compound", "T/C"],
 "data": [
  ["O=c1[nH]c2ccccc2c(=O)n1CCCN1CCN(c2cccc(Cl)c2)CC1", "114 % of control"],
  ["Cc1ccnc(NC(=O)Nc2cc(F)ccc2F)c1", "90 % of control"],
  ["Cc1cccc(NC(=O)Oc2ccccc2C(N)=O)c1", "98 % of control"],
  ["CC(C)OC(=S)SCC(=O)c1ccc(C(F)(F)F)cc1", "92 % of control"],
  ["CC(C)CCCC(C)C1CCC2C3CCC4CC(=O)CCC4(C)C3CCC12C (stereo not given)", "93 % of control"],
  ["CCCCN1C(c2ccccc2)=CN(Cc2ccccc2)C=C1c1ccccc1", "110 % of control"],
  ["Cc1cccc(C)c1OC(=O)Nc1cccc2ccccc12", "97 % of control"],
  ["O=C1CN(CCN2CC(=O)N(Cc3ccccc3)C2=S)C(=S)N1Cc1ccccc1", "88 % of control"],
  ["CC(=O)c1cccc(NC(=O)COc2cc(Cl)c(Cl)cc2Cl)c1", "113 % of control"],
  ["CNc1ccccc1C(=O)N/N=C/c1ccccc1Cl", "93 % of control"],
  ["Cc1ccccc1NC(=O)Oc1ccccc1-c1ccccc1", "118 % of control"],
  ["Cc1ccccc1OP(=S)(NN)Oc1ccccc1C", "100 % of control"],
  ["O=C(O)c1ccccc1CBr", "100 % of control"],
  ["N=C(N)SC1c2ccccc2-c2cc([N+](=O)[O-])ccc21 (stereo not given)", "114 % of control"],
  ["O=CC(C=O)[N+](=O)[O-]", "94 % of control"],
  ["Clc1ccc(N=Nc2ccccn2)cc1", "96 % of control"],
  ["COc1c(O)c2c(=O)cc3c4c5c(cc(=O)c6c(O)c(OC)c(CC(C)O)c(c(c1CC(C)O)c24)c65)OCO3 (stereo not given)", "102 % of control"],
  ["COc1ccc(OC)c(C(=O)CSC(=S)OC(C)C)c1", "92 % of control"],
  ["COc1cc(/C=N/N=C/c2cc(OC)cc(OC)c2)cc(OC)c1", "100 % of control"],
  ["Cc1ccc([N+](=O)[O-])cc1NC(=O)N(CCO)C1CCCCC1", "100 % of control"],
  ["Cc1ccc2nc[nH]c(=O)c2c1", "103 % of control"],
  ["COc1ccc(/C=C(\\C#N)c2ccc([N+](=O)[O-])cc2)cc1[N+](=O)[O-]", "105 % of control"],
  ["O=C(COc1ccc(Cl)cc1Cl)OC(=O)COc1ccc(Cl)cc1Cl", "95 % of control"],
  ["S=C(NCC1CCCO1)Nc1cccc2ccccc12 (stereo not given)", "91 % of control"],
  ["COc1ccc(NC(=S)N(CCC#N)C2CCCCC2)cc1", "94 % of control"],
  ["COc1ccc(-c2cc3c(OC)ccc(OC)c3[nH]2)cc1", "102 % of control"],
  ["Oc1ccc(-c2nnc(-c3ccc(O)cc3)nn2)cc1", "94 % of control"],
  ["O=C1CC(=P(c2ccccc2)(c2ccccc2)c2ccccc2)C(=O)N1c1ccccc1", "109 % of control"],
  ["Cc1ccc(N2P(N(C)C)N(c3ccc(C)cc3)P2(=O)N(C)C)cc1 (stereo not given)", "101 % of control"],
  ["COC(=O)C(=O)CC(=O)c1ccc(OC)cc1", "95 % of control"],
  ["CCOC(=O)C/C(C)=N\\NC(N)=O", "101 % of control"],
  ["O=C(O)/C=C(/Oc1ccc(Cl)cc1Cl)C(=O)O", "87 % of control"],
  ["O=C(O)CCCCCCCCCCCCCCC(=O)O", "101 % of control"],
  ["CN1C(=O)N(C)C(=O)C2(C1=O)C1(C(=O)N(C)C(=O)N(C)C1=O)C21C(=O)N(C)C(=O)N(C)C1=O", "100 % of control"],
  ["NC(=S)N/N=C/c1c(Cl)n(C(=O)c2ccccc2Cl)c2ccccc12", "91 % of control"]
]}
